Reference source: paper PMC6835155

Answer each item with its documented ΔTm at 10 µM.
- Target entity: LIMK1KD (Homo sapiens, UniProt P53667)
- Construct: His6 (N, cleaved yes); made in house; host or cells: baculovirus; Sf9 for virus, TriEx insect cells for expression
- Sequence (P53667 330-637): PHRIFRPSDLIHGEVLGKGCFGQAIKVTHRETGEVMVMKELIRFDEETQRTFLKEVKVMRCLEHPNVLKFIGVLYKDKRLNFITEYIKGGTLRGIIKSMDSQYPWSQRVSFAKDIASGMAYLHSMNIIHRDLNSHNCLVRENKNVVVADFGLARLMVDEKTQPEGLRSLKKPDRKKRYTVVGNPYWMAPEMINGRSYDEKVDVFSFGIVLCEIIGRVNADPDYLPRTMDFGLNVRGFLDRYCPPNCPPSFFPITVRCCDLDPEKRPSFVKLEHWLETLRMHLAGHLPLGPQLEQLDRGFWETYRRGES
- Protocol details: Differential (dynamic) scanning fluorimetry (DSF) assay, LIMK1KD
- Type: binding
- Test settings: 2 µM LIMK1KD, compound 10 µM, single shot; read-out: TM Shift LIMK1 (K)
One number for each entry, in °C.

Previously resolved entries follow.
Cn1cc(C2=C(c3cn(C4CCN(Cc5ccccn5)CC4)c4ccccc34)C(=O)NC2=O)c2ccccc21 :: 1
CN1CCN(c2ccc3nc(-c4c(N)c5c(F)cccc5[nH]c4=O)[nH]c3c2)CC1 :: 2.2
COc1cc(Nc2c(C#N)cnc3cc(OCCCN4CCN(C)CC4)c(OC)cc23)c(Cl)cc1Cl [Bosutinib (SKI-606), Bosutinib] :: 0.1

# ---- query compound ----
query: I'd like to know its ΔTm at 10 µM. The compound in question is `O=C(/C=C/c1ccc(O)c(O)c1)c1ccc(O)cc1O`
result: -0.6
